Where do the numbers come from? From PubChem BioAssay.

Target: Voltage-gated potassium channel subunit beta-2 (Rattus norvegicus) (UniProt P62483)
Sequence (P62483 whole entry, looked up): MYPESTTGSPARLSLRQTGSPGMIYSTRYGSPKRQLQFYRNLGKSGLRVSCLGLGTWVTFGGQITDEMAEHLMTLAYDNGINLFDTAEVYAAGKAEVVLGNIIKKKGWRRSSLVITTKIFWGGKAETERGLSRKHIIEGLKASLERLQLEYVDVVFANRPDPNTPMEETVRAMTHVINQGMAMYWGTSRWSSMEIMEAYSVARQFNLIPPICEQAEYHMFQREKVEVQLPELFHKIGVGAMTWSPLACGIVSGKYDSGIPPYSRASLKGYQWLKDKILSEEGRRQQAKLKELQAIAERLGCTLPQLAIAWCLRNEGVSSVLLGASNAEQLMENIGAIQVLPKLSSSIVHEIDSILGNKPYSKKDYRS
Experiment: enhancers of rat Kvbeta2 NADPH turnover – biochemical, NADPH fluorescence, primary screen (AID 623);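 note: fluorescence intensity change per second fitted from 20 to 320 s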
Settings: Recombinant KvBeta, NADPH fluorescence decrease slope, 10 min; at 10 µM; stronger effect = lower value

{"molecule": "O=C(Cn1ccc2ccccc2c1=O)NCCC(=O)N1CCN(C2CCCCC2)CC1", "experimental.system": "Voltage-gated potassium channel subunit beta-2 (Rattus norvegicus) (UniProt P62483)", "NADPH fluorescence slope": "2.2e-05"}
{"molecule": "CCOC(=O)CSc1nc2ccccc2c(=O)n1CCN1CCOCC1", "experimental.system": "Voltage-gated potassium channel subunit beta-2 (Rattus norvegicus) (UniProt P62483)", "NADPH fluorescence slope": "-1.3e-06"}
{"molecule": "CC(C)(C)NC[C@H](O)COc1nsnc1N1CCOCC1", "experimental.system": "Voltage-gated potassium channel subunit beta-2 (Rattus norvegicus) (UniProt P62483)", "NADPH fluorescence slope": "-5e-06"}
{"molecule": "O=C(CCN1CCOCC1)Nc1ccc2c(c1)CCC2", "experimental.system": "Voltage-gated potassium channel subunit beta-2 (Rattus norvegicus) (UniProt P62483)", "NADPH fluorescence slope": "-5.3e-05"}
{"molecule": "c1coc(-c2nnc(-c3cccs3)o2)c1", "experimental.system": "Voltage-gated potassium channel subunit beta-2 (Rattus norvegicus) (UniProt P62483)", "NADPH fluorescence slope": "-6.6e-07"}
{"molecule": "CCCn1nnnc1SCC(=O)c1ccc2c(c1)OCCO2", "experimental.system": "Voltage-gated potassium channel subunit beta-2 (Rattus norvegicus) (UniProt P62483)", "NADPH fluorescence slope": 0.000111}
{"molecule": "Cc1ccc(N2CC(C(=O)Nc3ccc4c(c3)OCO4)CC2=O)cc1 (stereo unspecified)", "experimental.system": "Voltage-gated potassium channel subunit beta-2 (Rattus norvegicus) (UniProt P62483)", "NADPH fluorescence slope": "-4.3e-05"}
{"molecule": "O=C(O)c1ccc(-n2nnnc2Oc2ccccc2C(=O)N2CCOCC2)cc1", "experimental.system": "Voltage-gated potassium channel subunit beta-2 (Rattus norvegicus) (UniProt P62483)", "NADPH fluorescence slope": "-1.8e-05"}
{"molecule": "N#CC1=C(N)Oc2n[nH]c(-c3cccs3)c2C1c1cccs1 (stereo unspecified)", "experimental.system": "Voltage-gated potassium channel subunit beta-2 (Rattus norvegicus) (UniProt P62483)", "NADPH fluorescence slope": "-1.8e-05"}
{"molecule": "COC(=O)Cc1c(C)nc2nc(-c3ccccc3)[nH]n2c1=O", "experimental.system": "Voltage-gated potassium channel subunit beta-2 (Rattus norvegicus) (UniProt P62483)", "NADPH fluorescence slope": "-9.1e-06"}
{"molecule": "CCSc1nnc(NC(=O)c2nn(C(C)C)c(=O)c3ccccc23)s1", "experimental.system": "Voltage-gated potassium channel subunit beta-2 (Rattus norvegicus) (UniProt P62483)", "NADPH fluorescence slope": -0.000337}
{"molecule": "CC1CCN(CCC(=O)Nc2ccc(Br)cc2)CC1", "experimental.system": "Voltage-gated potassium channel subunit beta-2 (Rattus norvegicus) (UniProt P62483)", "NADPH fluorescence slope": "2.4e-06"}
{"molecule": "Cc1ccc(N2CN=c3s/c(=C\\c4cccnc4)c(=O)n3C2)cc1", "experimental.system": "Voltage-gated potassium channel subunit beta-2 (Rattus norvegicus) (UniProt P62483)", "NADPH fluorescence slope": "-4.2e-05"}
{"molecule": "Cn1cnnc1SCC(=O)Nc1ccccc1Sc1ccccc1", "experimental.system": "Voltage-gated potassium channel subunit beta-2 (Rattus norvegicus) (UniProt P62483)", "NADPH fluorescence slope": "-2.9e-05"}
{"molecule": "Cc1nc2cccc(C(=O)NC3CCCCC3)c2o1", "experimental.system": "Voltage-gated potassium channel subunit beta-2 (Rattus norvegicus) (UniProt P62483)", "NADPH fluorescence slope": "-1.2e-05"}
{"molecule": "Cc1n[nH]c(C)c1S(=O)(=O)N1CCN(c2ccccn2)CC1", "experimental.system": "Voltage-gated potassium channel subunit beta-2 (Rattus norvegicus) (UniProt P62483)", "NADPH fluorescence slope": "5e-05"}
{"molecule": "CN1C(=O)CSc2ccc(NC(=O)N3CCN(c4ccccn4)CC3)cc21", "experimental.system": "Voltage-gated potassium channel subunit beta-2 (Rattus norvegicus) (UniProt P62483)", "NADPH fluorescence slope": "8e-05"}
{"molecule": "OCCOCCN1CCN(C(c2ccccc2)c2ccc(Cl)cc2)CC1 (stereo unspecified)", "experimental.system": "Voltage-gated potassium channel subunit beta-2 (Rattus norvegicus) (UniProt P62483)", "NADPH fluorescence slope": "2.2e-05"}
{"molecule": "Cc1ccc2c(COn3nnc4ccc(S(=O)(=O)N(C)C)cc43)cc(=O)oc2c1C", "experimental.system": "Voltage-gated potassium channel subunit beta-2 (Rattus norvegicus) (UniProt P62483)", "NADPH fluorescence slope": "-6.4e-05"}
{"molecule": "Cc1ccc(S(=O)(=O)NCCc2ccncc2)cc1", "experimental.system": "Voltage-gated potassium channel subunit beta-2 (Rattus norvegicus) (UniProt P62483)", "NADPH fluorescence slope": "-5.6e-05"}
{"molecule": "Cc1ccc(S(=O)(=O)Cc2ccc(C(=O)NCc3ccc4c(c3)OCO4)o2)cc1", "experimental.system": "Voltage-gated potassium channel subunit beta-2 (Rattus norvegicus) (UniProt P62483)", "NADPH fluorescence slope": "-9.9e-06"}
{"molecule": "Cc1cccc(NC(=O)CCn2ccnc2C)c1", "experimental.system": "Voltage-gated potassium channel subunit beta-2 (Rattus norvegicus) (UniProt P62483)", "NADPH fluorescence slope": "-5e-05"}
{"molecule": "CCOc1ccc2cc(C#N)c(SCC(=O)N3CCOCC3)nc2c1", "experimental.system": "Voltage-gated potassium channel subunit beta-2 (Rattus norvegicus) (UniProt P62483)", "NADPH fluorescence slope": "-2.5e-05"}
{"molecule": "Nc1nnc(SCC(=O)N2CCc3ccccc32)n1-c1ccccc1", "experimental.system": "Voltage-gated potassium channel subunit beta-2 (Rattus norvegicus) (UniProt P62483)", "NADPH fluorescence slope": "-4.3e-05"}
{"molecule": "Cc1ccc(-n2c(=O)[nH]c3c(C(N)=O)nc(CC(C)C)nc32)cc1", "experimental.system": "Voltage-gated potassium channel subunit beta-2 (Rattus norvegicus) (UniProt P62483)", "NADPH fluorescence slope": -0.000117}
{"molecule": "Cc1ccc(NC2c3ncccc3C(=O)N2C2CCCCC2)cc1C (stereo unspecified)", "experimental.system": "Voltage-gated potassium channel subunit beta-2 (Rattus norvegicus) (UniProt P62483)", "NADPH fluorescence slope": "-8.5e-06"}
{"molecule": "O=S(=O)(c1ccccc1)N1CCSC1c1ccco1 (stereo unspecified)", "experimental.system": "Voltage-gated potassium channel subunit beta-2 (Rattus norvegicus) (UniProt P62483)", "NADPH fluorescence slope": "-4e-05"}
{"molecule": "Cc1nn(-c2ccccc2)c(Cl)c1C1C(C#N)=C(N)OC2=C1C(=O)CC(C)(C)C2 (stereo unspecified)", "experimental.system": "Voltage-gated potassium channel subunit beta-2 (Rattus norvegicus) (UniProt P62483)", "NADPH fluorescence slope": "-3.7e-05"}
{"molecule": "O=C(CSc1nnc(-c2cccs2)o1)N1CCOCC1", "experimental.system": "Voltage-gated potassium channel subunit beta-2 (Rattus norvegicus) (UniProt P62483)", "NADPH fluorescence slope": "-3.4e-05"}
{"molecule": "COC(=O)c1ccc(CN(c2ccccc2OC)S(=O)(=O)c2cccs2)o1", "experimental.system": "Voltage-gated potassium channel subunit beta-2 (Rattus norvegicus) (UniProt P62483)", "NADPH fluorescence slope": "-5.7e-05"}
{"molecule": "Cn1nc(-c2ccc(C(=O)N3CCN(c4ccccc4)CC3)cc2)c2ccccc2c1=O", "experimental.system": "Voltage-gated potassium channel subunit beta-2 (Rattus norvegicus) (UniProt P62483)", "NADPH fluorescence slope": "-4.4e-05"}
{"molecule": "Cc1nc(C)c(C(=O)Nc2ccc(C)c(F)c2)o1", "experimental.system": "Voltage-gated potassium channel subunit beta-2 (Rattus norvegicus) (UniProt P62483)", "NADPH fluorescence slope": "-5.2e-05"}
{"molecule": "COc1cccc(-c2cc3nc4c(c(N5CCC6(CC5)OCCO6)n3n2)CCCC4)c1", "experimental.system": "Voltage-gated potassium channel subunit beta-2 (Rattus norvegicus) (UniProt P62483)", "NADPH fluorescence slope": "2.4e-05"}
{"molecule": "C[N+](C)(C)CCCCCCCCCC[N+](C)(C)C", "experimental.system": "Voltage-gated potassium channel subunit beta-2 (Rattus norvegicus) (UniProt P62483)", "NADPH fluorescence slope": "-5.9e-05"}
{"molecule": "c1ccc(CNC2=NCCC2)nc1", "experimental.system": "Voltage-gated potassium channel subunit beta-2 (Rattus norvegicus) (UniProt P62483)", "NADPH fluorescence slope": "-2.6e-05"}
{"molecule": "CCCOc1nc(N)c(C#N)c(-c2ccccc2F)c1C#N", "experimental.system": "Voltage-gated potassium channel subunit beta-2 (Rattus norvegicus) (UniProt P62483)", "NADPH fluorescence slope": "2.2e-05"}
{"molecule": "CCCn1c(NCc2ccc3c(c2)OCO3)nc2ccccc21", "experimental.system": "Voltage-gated potassium channel subunit beta-2 (Rattus norvegicus) (UniProt P62483)", "NADPH fluorescence slope": "-5.7e-05"}
{"molecule": "COc1ccc(C2C(C(C)=O)=C(C)N=c3s/c(=C\\c4ccc5c(c4)OCO5)c(=O)n32)c(OC)c1 (stereo unspecified)", "experimental.system": "Voltage-gated potassium channel subunit beta-2 (Rattus norvegicus) (UniProt P62483)", "NADPH fluorescence slope": "-1.5e-05"}
{"molecule": "COc1cccc(N2CCN(c3c4c(nc5ncnn35)CCC4)CC2)c1", "experimental.system": "Voltage-gated potassium channel subunit beta-2 (Rattus norvegicus) (UniProt P62483)", "NADPH fluorescence slope": "-5.9e-05"}
{"molecule": "CC(=O)Nc1ccc(S(=O)(=O)N2CCN(Cc3ccncc3)CC2)cc1", "experimental.system": "Voltage-gated potassium channel subunit beta-2 (Rattus norvegicus) (UniProt P62483)", "NADPH fluorescence slope": "-3.2e-05"}
{"molecule": "O=C(Cn1cnc2sc(-c3ccccc3)cc2c1=O)N1CCOCC1", "experimental.system": "Voltage-gated potassium channel subunit beta-2 (Rattus norvegicus) (UniProt P62483)", "NADPH fluorescence slope": "-4.1e-05"}
{"molecule": "Cc1cc(NC(=O)NC(=O)c2cccc(OC(F)(F)C(F)F)c2)n[nH]1", "experimental.system": "Voltage-gated potassium channel subunit beta-2 (Rattus norvegicus) (UniProt P62483)", "NADPH fluorescence slope": 0.000153}
{"molecule": "O=C(Nc1nccs1)c1ccc(Cl)c(S(=O)(=O)N2CCCCC2)c1", "experimental.system": "Voltage-gated potassium channel subunit beta-2 (Rattus norvegicus) (UniProt P62483)", "NADPH fluorescence slope": "-3.8e-05"}
{"molecule": "c1ccc2c(c1)nc(CN1CCOCC1)n1c3ccccc3nc21", "experimental.system": "Voltage-gated potassium channel subunit beta-2 (Rattus norvegicus) (UniProt P62483)", "NADPH fluorescence slope": "-2.8e-05"}
{"molecule": "CCOC(=O)Cc1nnc(NC(=O)CSc2nnc3c4ccccc4n(C(C)C)c3n2)s1", "experimental.system": "Voltage-gated potassium channel subunit beta-2 (Rattus norvegicus) (UniProt P62483)", "NADPH fluorescence slope": "-3.3e-05"}
{"molecule": "Cc1c(NC(=O)C2CCCNC2=O)c(=O)n(-c2ccccc2)n1C (stereo unspecified)", "experimental.system": "Voltage-gated potassium channel subunit beta-2 (Rattus norvegicus) (UniProt P62483)", "NADPH fluorescence slope": "3.2e-05"}
